These entries and their values trace back to patent US20220387586A1.

# TEST_SYSTEM: T1, cynomolgus LAG3 on cells (cynomolgus)
# T1 construct: whole, on cells; also called cyno-LAG-3; cynoLAG3
# MEASUREMENT_NOTES: flow cytometry on HEK293F cells transfected with cyno-LAG-3, antibody 10 µg/ml
TEST_READOUT: GeoMean
// response body must contain only the number

Reference LAG3 antibody MDX25F7 (antibody, V domains shown, also called MDX-25F7 (25F7); Medarex 25F7) VH: QVQLQQWGAGLLKPSETLSLTCAVYGGSFSDYYWNWIRQPPGKGLEWIGEINHNGNTNSNPSLKSRVTLSLDTSKNQFSLKLRSVTAADTAVYYCAFGYSDYEYNWFDPWGQGTLVTVSS VL: EIVLTQSPATLSLSPGERATLSCRASQSISSYLAWYQQKPGQAPRLLIYDASNRATGIPARFSGSGSGTDFTLTISSLEPEDFAVYYCQQRSNWPLTFGQGTNLEIK	3060
aLAG3(0411) (antibody, V domains shown, also called aLAG3 (411)) VH: EVHLLESGGGLVQPGGSLRLSCAASGFIVDDYTMNWVRQAPGKGLEWVSVISWDGGATYYADSVKGRFTISRDDFKNTLYLQMNSLRAEDTAVYYCAKGLTDDTLYGSDYWGQGTLVTVSS VL: DIQMTQSPSSLSASVGDRVTITCRASQSIVSYLNWYQQKPGKAPKLLIYASSSLQSGVPSRFSGSGSGTDFTLTISSLQPEDFATYYCQQTYSTPLTFGGGTKVEIK	11000
aLAG3(0414) (antibody, V domains shown) VH: EVQLLESGGGLVQPGGSLRLSCAASGFIFDDYTMNWVRQAPGKGLEWVAVISWDGGGTYYTDSVKGRFTISRDDFKNTLYLQMNSLRAEDTAVYYCAKGLTDTTLYGSDYWGQGTLVTVSS VL: DIQMTQSPSSLSASVGDRVTITCRASQSISSYLNWYQQKPGKAPKLLIYAASTLQSGVPSRFSGSGSGTDFTLTISSLQPEDFATYYCQQTYSSPLTFGGGTKVEIKG	9170

Please examine the following record next.
Q. Dear colleague, I am looking for the recorded GeoMean of the following binder: aLAG3(0416) (antibody, V domains shown) VH: EVQLVESGGGLVQPGGSLRLACAASGFTFSDYAMSWVRQAPGKGLEWVSGIDNSGYYTYYTDSVKGRFTISRDDVKNTLYLQMNSLRAEDTAVYLCTKTHSGLIVNDAFDIWGQGTMVTVSS VL: DIQLTQSPSSLSASVGDRVTITCRASQSISSYLNWYQQKPGKAPKLLIYDASSLESGVPSRFSGSGSGTDATLTISSLQPEDFATYYCQQSYSTPLTFGGGTKVEIKG
A. 4220
